assay-target: USP39_T2 (Homo sapiens, UniProt Q53GS9)
Sequence (Q53GS9 103-200 limits assumed): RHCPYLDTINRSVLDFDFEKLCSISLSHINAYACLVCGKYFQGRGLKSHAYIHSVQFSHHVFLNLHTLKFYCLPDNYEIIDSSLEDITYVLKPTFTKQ
quantity-measured: pIC50
The meaning of pIC50 here: minus log10 of the concentration in molar units.

// recorded pIC50 for "CCOC(=O)c1csc(Nc2cccc(F)c2)n1" : 5.93
